Answer each item with its documented clearance.
Test system: Liver microsomes
Assay: Metabolic stability in human liver microsomes assessed as intrinsic clearance
Format: ADME, Microsome

* O=S(=O)(c1ccc2c(c1)CCNCC2)N1CC[C@@H](Oc2ccccc2Cl)C1 | 36 µL/min/mg
* O=S(=O)(c1ccc2c(c1)CCNCC2)N1CC(Oc2ccc(Cl)cc2)C1 | < 8 µL/min/mg
* O=S(=O)(c1ccc2c(c1)CCNCC2)N1CC(Oc2cccc(Cl)c2)C1 | 9 µL/min/mg
* O=S(=O)(c1ccccc1)c1ccc2c(c1)CCNCC2 | < 8 µL/min/mg

Record clearance for all entries; do not skip any.
1. O=S(=O)(c1ccc2c(c1)CCNCC2)N1CCC(Oc2ccccc2Cl)CC1
2. O=S(=O)(c1ccc2c(c1)CCNCC2)N1CC[C@H](Oc2ccccc2Cl)C1

1: 17 µL/min/mg; 2: 34 µL/min/mg

----------
Test: Distribution coefficient, log D at pH 7.4
Format: physicochemical
Settings: octanol/water
Mark each entry 1.0 if its logD sits below 1, and 0.0 for all others.

See these solved cases before continuing.
• O=S(=O)(c1ccc2c(c1)CCNCC2)N1CC[C@@H](Oc2ccccc2Cl)C1 = 0.0
• O=S(=O)(c1ccccc1)c1ccc2c(c1)CCNCC2 = 1.0

Say whether its logD is strictly beneath 1. Entry: O=S(=O)(c1ccc2c(c1)CCNCC2)N1CC(Oc2ccc(Cl)cc2)C1
0.0

Say whether its logD is strictly beneath 1. Entry: O=S(=O)(c1ccc2c(c1)CCNCC2)N1CC[C@H](Oc2ccccc2Cl)C1
0.0

Say whether its logD is strictly beneath 1. Entry: O=S(=O)(c1ccc2c(c1)CCNCC2)N1CCC(Oc2ccccc2Cl)CC1
0.0

Say whether its logD is strictly beneath 1. Entry: O=S(=O)(c1ccc2c(c1)CCNCC2)N1CC(Oc2ccccc2Cl)C1
0.0

----------
Answer each item with its documented Ki.
Biological target: Voltage-gated inwardly rectifying potassium channel KCNH2 (Homo sapiens, UniProt Q12809)
Sequence (Q12809 whole entry): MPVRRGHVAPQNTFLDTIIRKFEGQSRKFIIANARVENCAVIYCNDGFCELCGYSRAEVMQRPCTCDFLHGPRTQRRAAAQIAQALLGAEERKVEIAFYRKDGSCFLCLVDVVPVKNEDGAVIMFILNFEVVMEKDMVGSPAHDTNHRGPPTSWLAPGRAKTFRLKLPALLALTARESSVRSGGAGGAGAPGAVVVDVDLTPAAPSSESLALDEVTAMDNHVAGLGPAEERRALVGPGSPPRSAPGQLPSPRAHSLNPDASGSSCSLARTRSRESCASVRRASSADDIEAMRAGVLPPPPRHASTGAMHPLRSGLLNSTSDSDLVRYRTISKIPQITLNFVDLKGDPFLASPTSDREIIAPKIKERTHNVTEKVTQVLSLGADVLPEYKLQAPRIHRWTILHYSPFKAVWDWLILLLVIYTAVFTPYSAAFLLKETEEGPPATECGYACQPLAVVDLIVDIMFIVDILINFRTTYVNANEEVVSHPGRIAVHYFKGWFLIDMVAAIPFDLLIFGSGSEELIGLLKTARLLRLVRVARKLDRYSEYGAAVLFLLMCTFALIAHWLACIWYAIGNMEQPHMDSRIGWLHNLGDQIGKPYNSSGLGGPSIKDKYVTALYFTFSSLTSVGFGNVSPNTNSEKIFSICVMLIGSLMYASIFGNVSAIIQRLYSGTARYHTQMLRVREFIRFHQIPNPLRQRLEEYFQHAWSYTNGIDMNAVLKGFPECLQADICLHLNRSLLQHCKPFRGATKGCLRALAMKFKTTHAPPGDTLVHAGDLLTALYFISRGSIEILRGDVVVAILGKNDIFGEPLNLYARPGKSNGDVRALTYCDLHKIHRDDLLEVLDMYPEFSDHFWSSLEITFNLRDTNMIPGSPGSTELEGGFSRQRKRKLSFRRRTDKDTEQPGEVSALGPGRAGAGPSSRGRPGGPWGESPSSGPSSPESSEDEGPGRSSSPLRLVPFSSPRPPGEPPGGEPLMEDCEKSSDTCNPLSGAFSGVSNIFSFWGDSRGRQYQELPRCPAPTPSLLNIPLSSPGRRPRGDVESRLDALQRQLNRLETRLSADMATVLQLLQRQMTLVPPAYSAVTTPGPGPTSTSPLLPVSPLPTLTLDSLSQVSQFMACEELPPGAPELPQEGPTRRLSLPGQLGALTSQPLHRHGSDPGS
Assay: Binding affinity to human ERG

// below: answered compounds
* O=S(=O)(c1ccccc1)c1ccc2c(c1)CCNCC2 | > 7200 nM
* O=S(=O)(c1ccc2c(c1)CCNCC2)N1CC(Oc2ccc(Cl)cc2)C1 | 2090 nM
* CN(CC1COc2ccccc21)S(=O)(=O)c1ccc2c(c1)CCNCC2 (centres undefined) | 2990 nM

Query compound follows.
Looking for the measured Ki of O=S(=O)(c1ccc2c(c1)CCNCC2)N1CC(Oc2ccccc2Cl)C1 , can you help?
3410 nM

----------
Answer each item with its documented Emax.
Biological target: 5-hydroxytryptamine receptor 2C (Homo sapiens)
Test: Agonist activity at human recombinant 5HT2C receptor expressed in CHOK1 cells assessed as calcium mobilization at 10 uM by FLIPR assay relative to serotonin
Assay type: functional, cell-based
Conditions: CHO-K1
Give bare numbers, in %.

• CN(c1ccc2c(c1)CCNCC2)S(=O)(=O)c1ccccc1F = 10
• O=S(=O)(Nc1ccc2c(c1)CCNCC2)c1ccccc1F = 18

Query molecule follows.
Looking for the measured Emax of CN(c1ccccc1)S(=O)(=O)c1ccc2c(c1)CCNCC2 , can you help?
23
